pIC50: −log10 of the molar value.
These records show pIC50 for Lck (Homo sapiens, UniProt P06239).

// below: answered compounds
1) CNC/C=C/C(=O)N1CC[C@@H](n2nc(-c3ccc(C(=O)Nc4cc(C)ccn4)cc3)c3c(N)ncnc32)C1 [Example 22] | 6.00 to 7.00
2) Cc1cnc(NC(=O)c2ccc(-c3nn([C@@H]4CCN(C(=O)/C=C/CN(C)C5CC5)C4)c4ncnc(N)c34)cc2)s1 [Example 6] | 6.00 to 7.00
3) CCc1ccnc(NC(=O)c2ccc(-c3nn([C@@H]4CCN(C(=O)/C=C/CN(C)C5CC5)C4)c4ncnc(N)c34)cc2)c1 [Example 4] | 6.00 to 7.00

Query block: Please report the recorded pIC50 for Cc1ccnc(NC(=O)c2ccc(-c3nn([C@@H]4CCN(C(=O)/C=C/CN(C)C5CC5)C4)c4ncnc(N)c34)cc2)c1 [Example 1] .
Result block: 6.00 to 7.00

Query block: What pIC50 value was documented for this compound, CN(C/C=C/C(=O)N1CC[C@@H](n2nc(-c3ccc(C(=O)Nc4ncc(C#N)s4)cc3)c3c(N)ncnc32)C1)C1CC1 [Example 12] ?
Result block: > 7.00

Query block: Which value of pIC50 has been reported for CN(C/C=C/C(=O)N1CC[C@@H](n2nc(-c3ccc(C(=O)Nc4ncco4)cc3)c3c(N)ncnc32)C1)C1CC1 [Example 14] in the records?
Result block: < 5.00

Query block: Give the measured pIC50 of CC(C)c1ccnc(NC(=O)c2ccc(-c3nn([C@@H]4CCN(C(=O)/C=C/CN(C)C)C4)c4ncnc(N)c34)cc2)c1 [Example 31] .
Result block: > 7.00

###

- system under test: BTK (Homo sapiens, UniProt Q06187)
- Construct: purified from insect cells as a full-length construct containing a N-terminal 6×-His tag; His6 (N); made in house; host or cells: insect cells (baculovirus, Sf21)
- Sequence (Q06187 whole entry): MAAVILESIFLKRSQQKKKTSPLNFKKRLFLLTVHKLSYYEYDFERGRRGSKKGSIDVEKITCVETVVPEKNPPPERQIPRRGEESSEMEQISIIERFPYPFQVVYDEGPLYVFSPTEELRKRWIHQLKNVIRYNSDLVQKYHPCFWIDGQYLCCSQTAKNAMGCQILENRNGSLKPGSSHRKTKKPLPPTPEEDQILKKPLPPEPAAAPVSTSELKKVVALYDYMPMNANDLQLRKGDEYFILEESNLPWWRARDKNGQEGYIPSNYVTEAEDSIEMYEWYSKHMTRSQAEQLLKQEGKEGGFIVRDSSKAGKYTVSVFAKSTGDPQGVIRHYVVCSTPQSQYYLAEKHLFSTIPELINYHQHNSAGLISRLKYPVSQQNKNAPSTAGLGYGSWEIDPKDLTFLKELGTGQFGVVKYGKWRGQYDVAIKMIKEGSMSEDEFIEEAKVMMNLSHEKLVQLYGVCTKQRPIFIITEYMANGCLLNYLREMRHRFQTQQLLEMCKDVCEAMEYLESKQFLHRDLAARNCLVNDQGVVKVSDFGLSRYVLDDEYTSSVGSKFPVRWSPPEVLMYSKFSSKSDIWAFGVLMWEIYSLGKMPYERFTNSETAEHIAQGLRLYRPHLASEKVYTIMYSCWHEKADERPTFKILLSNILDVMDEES
- test summary: Btk in vitro inhibitory activity (TR-FRET, mobility shift or radiometric filter binding kinase assay)
- Assay type: biochemical
- measurement context: determined using one of the methods outlined in Example 47a, 47b, and 47c
- Description: Btk kinase activity is determined using a time-resolved fluorescence resonance energy transfer (TR-FRET) methodology. Measurements are performed in a reaction volume of 50 μL using 96-well assay plates. […] The TR-FRET signal is measured on a multimode plate reader with an excitation wavelength (λEx) of 330 nm and detection wavelengths (λEm) of 615 and 665 nm. Activity is determined by the ratio of the fluorescence at 665 nm to that at 615 nm. […]
pIC50: −log10 of the molar value.
measured metric: pIC50

1. CCc1cnc(NC(=O)c2ccc(-c3nn([C@@H]4CCN(C(=O)/C=C/CN(C)C5CC5)C4)c4ncnc(N)c34)cc2)s1 | > 7.00
2. Cc1ccnc(NC(=O)c2ccc(-c3nn([C@H]4CC[C@H](NC(=O)/C=C/CN(C)C5CC5)CC4)c4ncnc(N)c34)cc2)c1 | > 7.00
3. CN(C/C=C/C(=O)N1CC[C@@H](n2nc(-c3ccc(C(=O)Nc4cc(C(F)(F)F)ccn4)cc3)c3c(N)ncnc32)C1)C1CC1 | > 9.00
4. CN(C/C=C/C(=O)N1CC[C@@H](n2nc(-c3ccc(C(=O)Nc4ncco4)cc3)c3c(N)ncnc32)C1)C1CC1 | > 7.00
5. CN(C/C=C/C(=O)N1CC[C@@H](n2nc(-c3ccc(C(=O)Nc4nccs4)cc3)c3c(N)ncnc32)C1)C1CC1 | > 7.00

Query block: BTK (Homo sapiens, UniProt Q06187) / pIC50 / CN(C/C=C/C(=O)N1CC[C@@H](n2nc(-c3ccc(C(=O)Nc4cc(C5CC5)ccn4)cc3)c3c(N)ncnc32)C1)C1CC1 : value?
Result block: > 9.00

Query block: Please state recorded pIC50 (tested on BTK (Homo sapiens, UniProt Q06187)) of CN(C)C/C=C/C(=O)N1CCC[C@@H](n2nc(-c3ccc(C(=O)Nc4cc(C#N)ccn4)cc3)c3c(N)ncnc32)C1
Result block: > 9.00

Query block: Enter reported pIC50 observed with BTK (Homo sapiens, UniProt Q06187) for CN(C/C=C/C(=O)N1CCC[C@@H](n2nc(-c3ccc(C(=O)Nc4cc(C(F)(F)F)ccn4)cc3)c3c(N)ncnc32)C1)C1CC1
Result block: > 9.00

Query block: What measured pIC50 is associated with CC(C)c1ccnc(NC(=O)c2ccc(-c3nn([C@@H]4CCCN(C(=O)/C=C/CN(C)C)C4)c4ncnc(N)c34)cc2)c1 on BTK (Homo sapiens, UniProt Q06187)?
Result block: > 9.00

###

- system under test: BTK (Homo sapiens, UniProt Q06187)
pIC50: −log10 of the molar value.
pIC50 values, listed per item

Here's what some known entries look like.
1. CC(C)c1ccnc(NC(=O)c2ccc(-c3nn([C@@H]4CCN(C(=O)/C=C/CN(C)C5CC5)C4)c4ncnc(N)c34)cc2)c1 | > 9.00
2. C=CC(=O)N[C@H]1CC[C@H](n2nc(-c3ccc(C(=O)Nc4cc(C)ccn4)cc3)c3c(N)ncnc32)CC1 | > 9.00
3. CN(C/C=C/C(=O)N[C@H]1CC[C@H](n2nc(-c3ccc(C(=O)Nc4cc(C(F)(F)F)ccn4)cc3)c3c(N)ncnc32)CC1)C1CC1 | > 9.00
4. CN(C)C/C=C/C(=O)N1CCC[C@@H](n2nc(-c3ccc(C(=O)Nc4cc(C(F)(F)F)ccn4)cc3)c3c(N)ncnc32)C1 | > 9.00
5. CCc1ccnc(NC(=O)c2ccc(-c3nn([C@@H]4CCN(C(=O)/C=C/CN(C)C5CC5)C4)c4ncnc(N)c34)cc2)c1 | > 9.00

Query block: Quick check: pIC50 on BTK (Homo sapiens, UniProt Q06187), item Cc1ccnc(NC(=O)c2ccc(-c3nn([C@H]4CC[C@H](NC(=O)/C=C/CN(C)C)CC4)c4ncnc(N)c34)cc2)c1 ?
Result block: > 7.00

###

These records show IC50 for Lck (Homo sapiens, UniProt P06239).

Solved cases below.
1. Nc1ncnc2c1c(-c1ccc(C(=O)Nc3cc(C(F)(F)F)ccn3)cc1)nn2[C@@H]1CCN(C(=O)/C=C/CNC2CC2)C1 | < 0.1 µM
2. CCCc1ccnc(NC(=O)c2ccc(-c3nn([C@@H]4CCN(C(=O)/C=C/CN(C)C5CC5)C4)c4ncnc(N)c34)cc2)c1 | 0.1 to 1 µM

Okay, next one:
Query block: Reported IC50 for CN(C)C/C=C/C(=O)N1CC[C@@H](n2nc(-c3ccc(C(=O)Nc4ccccn4)cc3)c3c(N)ncnc32)C1 : what is it?
Result block: 0.1 to 1 µM

###

List of IC50 tested on Lck (Homo sapiens).
Sequence (P06239 whole entry, species assumed): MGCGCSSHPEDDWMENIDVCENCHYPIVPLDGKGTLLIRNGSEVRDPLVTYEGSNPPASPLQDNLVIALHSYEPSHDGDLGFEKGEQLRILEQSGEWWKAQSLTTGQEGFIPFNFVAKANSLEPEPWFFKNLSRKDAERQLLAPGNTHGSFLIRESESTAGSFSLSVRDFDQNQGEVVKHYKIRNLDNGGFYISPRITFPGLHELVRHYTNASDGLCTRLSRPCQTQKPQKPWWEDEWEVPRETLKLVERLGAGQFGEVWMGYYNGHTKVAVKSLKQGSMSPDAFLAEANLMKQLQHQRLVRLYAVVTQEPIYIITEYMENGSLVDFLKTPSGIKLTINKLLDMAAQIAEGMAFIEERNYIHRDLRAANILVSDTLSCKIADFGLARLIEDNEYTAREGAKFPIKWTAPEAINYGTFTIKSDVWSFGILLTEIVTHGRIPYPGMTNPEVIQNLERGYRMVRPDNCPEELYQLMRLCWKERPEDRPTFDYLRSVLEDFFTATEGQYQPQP

1) CN(C/C=C/C(=O)N1CC[C@@H](n2nc(-c3ccc(C(=O)Nc4ccccn4)cc3)c3c(N)ncnc32)C1)C1CC1 [Example 46] | 100 to 1000 nM
2) Cc1ccnc(NC(=O)c2ccc(-c3nn([C@@H]4CCN(C(=O)/C=C/CNC5CC5)C4)c4ncnc(N)c34)cc2)c1 [Example 23] | 100 to 1000 nM
3) CN(C/C=C/C(=O)N1CC[C@@H](n2nc(-c3ccc(C(=O)Nc4ncc(C(F)(F)F)s4)cc3)c3c(N)ncnc32)C1)C1CC1 [Example 11] | < 100 nM
4) CN(C/C=C/C(=O)N[C@H]1CC[C@H](n2nc(-c3ccc(C(=O)Nc4cc(C(F)(F)F)ccn4)cc3)c3c(N)ncnc32)CC1)C1CC1 [Example 20] | < 100 nM

Okay, now this compound:
Query block: # returns recorded IC50 (system: Lck (Homo sapiens)) for CN(C)C/C=C/C(=O)N1CC[C@@H](n2nc(-c3ccc(C(=O)Nc4cc(C#N)ccn4)cc3)c3c(N)ncnc32)C1 [Example 32]
Result block: 100 to 1000 nM
